Tested on: inflammation induced by oxozolone
assay name: Dermatitis test induced with oxazolone
Assay type: in vivo, CFLP mice
test conditions: 1 mg/kg i.p.; 24th hour after treatment; ear weight increase
Peptide text beside a SMILES is read from it.
Can you tell me Inhibition of inflammation induced by oxozolone, inhibition as % of control for the items I'm about to list?
Please state the figure in %; there is no need to write the unit.

Query: Look up and report measured Inhibition of inflammation induced by oxozolone, inhibition as % of control for this entry: NCCCC[C@H](NC(=O)[C@H](CCCCN)NC(=O)[C@H](CCC(=O)O)NC(=O)[C@@H](N)CCCCN)C(=O)O [Peptide 10, Lys-GIu-Lys-Lys-OH] (H-KEKK-OH)
Response: 22

Query: Look up and report measured Inhibition of inflammation induced by oxozolone, inhibition as % of control for this entry: CC(C)C[C@H](NC(=O)[C@@H](N)CCC(=O)O)C(=O)N[C@H](C(=O)N[C@@H](C)C(=O)O)C(C)C [Peptide 13, GIu-Leu-VaI-AIa-OH] (H-ELVA-OH)
Response: 40

Query: Look up and report measured Inhibition of inflammation induced by oxozolone, inhibition as % of control for this entry: CC(C)C[C@H](N)C(=O)N1CCC[C@H]1C(=O)N[C@@H](C)C(=O)NCC(=O)O [Peptide 14, Leu-Pro AIa-Gly-OH] (H-LPAG-OH)
Response: 55

Query: Look up and report measured Inhibition of inflammation induced by oxozolone, inhibition as % of control for this entry: N=C(N)NCCC[C@H](N)C(=O)N[C@@H](CCCCN)C(=O)N[C@@H](CC(=O)O)C(N)=O [Peptide 4, Arg-Lys-Asp-NH2] (H-Arg-Lys-Asp-NH2)
Response: 27
